src = ChEMBL document CHEMBL3991601

- system_name: Tyrosine-protein kinase FRK (Homo sapiens); also: in the data inactive means no Kd found up to 30 µM
- Sequence (P42685 whole entry): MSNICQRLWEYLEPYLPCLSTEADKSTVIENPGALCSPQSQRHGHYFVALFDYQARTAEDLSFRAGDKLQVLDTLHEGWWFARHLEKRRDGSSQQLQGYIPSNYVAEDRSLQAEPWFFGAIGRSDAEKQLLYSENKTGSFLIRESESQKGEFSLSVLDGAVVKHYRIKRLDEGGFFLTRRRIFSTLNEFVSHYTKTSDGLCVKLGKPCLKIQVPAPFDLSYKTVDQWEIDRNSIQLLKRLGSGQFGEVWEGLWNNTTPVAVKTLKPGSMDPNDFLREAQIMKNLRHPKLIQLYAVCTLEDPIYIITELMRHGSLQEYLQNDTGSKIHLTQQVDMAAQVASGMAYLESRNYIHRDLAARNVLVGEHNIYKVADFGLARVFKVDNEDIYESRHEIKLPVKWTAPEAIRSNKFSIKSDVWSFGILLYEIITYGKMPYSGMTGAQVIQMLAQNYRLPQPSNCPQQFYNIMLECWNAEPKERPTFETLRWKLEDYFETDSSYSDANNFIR
Active and inactive are the calls of the source.
Tick one outcome: active, inactive

Solved cases (2 shown):
molecule	system_name	class
Cn1ncc(Cl)c1-c1cc(C(=O)N[C@H](CN)Cc2cccc(F)c2)sc1Cl [AFURESERTIB]	Tyrosine-protein kinase FRK (Homo sapiens)	inactive
C[C@@H](c1ccc2nccn2c1)n1nnc2ncc(-c3cnn(C)c3)nc21 [SAVOLITINIB]	Tyrosine-protein kinase FRK (Homo sapiens)	inactive

Give the logged outcome of this assay for the following molecule: O=C(O)[C@]1(Cc2cccc(Nc3nccs3)n2)CC[C@@H](Oc2cccc(Cl)c2F)CC1 [MK-5108]
active

---

Calls of active or inactive are those of the source.
Here's a batch of compounds along with measured Kd for cAMP-dependent protein kinase type II-alpha regulatory subunit (Homo sapiens).

compound	Kd
CNC(=O)c1ccc(-c2cnc3ncc(Cc4ccc5ncccc5c4)n3n2)cc1F [CAPMATINIB]	> 30 µM (inactive)
CC(=O)Nc1cccc(-n2c(=O)n(C3CC3)c(=O)c3c(Nc4ccc(I)cc4F)n(C)c(=O)c(C)c32)c1 [TRAMETINIB]	> 30 µM (inactive)
COC(=O)[C@@]1(O)C[C@H]2O[C@]1(C)n1c3ccccc3c3c4c(c5c6ccccc6n2c5c31)C(=O)NC4 [K-252A]	> 30 µM (inactive)
O=C(Nc1ccc(-c2ccnc(Nc3ccc(N4CCOCC4)cc3)n2)cc1)C1CCCN1 (configuration not stated) [XL-019]	> 30 µM (inactive)
Cn1cc(-c2ccc3nnc(C(F)(F)c4ccc5ncccc5c4)n3n2)cn1 [JNJ-38877605]	> 30 µM (inactive)

Item: CN1CCC(CNc2ccc3ncc(-c4cccc(OC(F)(F)F)c4)n3n2)CC1 [SGI-1776] | System: cAMP-dependent protein kinase type II-alpha regulatory subunit (Homo sapiens) | Kd: > 30 µM (inactive)

Item: CNS(=O)(=O)Nc1nccc(Cc2c(C)c3ccc(Oc4ncccn4)cc3oc2=O)c1F [AVUTOMETINIB] | System: cAMP-dependent protein kinase type II-alpha regulatory subunit (Homo sapiens) | Kd: > 30 µM (inactive)

Item: Cn1ncc(Cl)c1-c1cc(C(=O)N[C@H](CN)Cc2cccc(F)c2)sc1Cl [AFURESERTIB] | System: cAMP-dependent protein kinase type II-alpha regulatory subunit (Homo sapiens) | Kd: > 30 µM (inactive)

---

- system_name: TGF-beta receptor type-2 (Homo sapiens, UniProt P37173); also: in the data inactive means no Kd found up to 30 µM
- Sequence (P37173 whole entry): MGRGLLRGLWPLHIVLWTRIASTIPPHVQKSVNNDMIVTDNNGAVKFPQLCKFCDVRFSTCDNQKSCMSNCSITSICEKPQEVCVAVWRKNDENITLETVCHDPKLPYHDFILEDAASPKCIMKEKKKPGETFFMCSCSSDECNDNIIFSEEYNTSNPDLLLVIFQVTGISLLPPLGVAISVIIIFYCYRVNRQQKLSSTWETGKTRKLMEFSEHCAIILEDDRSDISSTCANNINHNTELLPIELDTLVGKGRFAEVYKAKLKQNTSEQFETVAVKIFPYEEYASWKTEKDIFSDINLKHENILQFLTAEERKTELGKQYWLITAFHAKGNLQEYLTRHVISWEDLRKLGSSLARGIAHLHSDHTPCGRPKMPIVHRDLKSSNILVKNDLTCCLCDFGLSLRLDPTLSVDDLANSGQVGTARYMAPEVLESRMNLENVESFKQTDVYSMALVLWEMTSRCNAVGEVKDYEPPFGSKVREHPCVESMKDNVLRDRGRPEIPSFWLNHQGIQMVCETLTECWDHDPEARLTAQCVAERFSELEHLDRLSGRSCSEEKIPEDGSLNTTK
The source made the active and inactive calls.
measured_metric: Kd

compound	observed_value
CNC(=O)c1cc(Oc2ccc(NC(=O)Nc3ccc(Cl)c(C(F)(F)F)c3)c(F)c2)ccn1	> 30 µM (inactive)
COC(=O)N[C@@H](C)CNc1nccc(-c2cn(C(C)C)nc2-c2cc(Cl)cc(NS(C)(=O)=O)c2F)n1	> 30 µM (inactive)
CCCS(=O)(=O)Nc1ccc(F)c(C(=O)c2c[nH]c3ncc(-c4ccc(Cl)cc4)cc23)c1F	3.4 µM (active)

Item: COc1cc2nccc(Oc3ccc(NC(=O)NC4CC4)c(Cl)c3)c2cc1C(N)=O | System: TGF-beta receptor type-2 (Homo sapiens, UniProt P37173) | Kd: > 30 µM (inactive)

Item: COc1cc(CCc2cc(NC(=O)c3ccc(N4C[C@@H](C)N[C@@H](C)C4)cc3)n[nH]2)cc(OC)c1 | System: TGF-beta receptor type-2 (Homo sapiens, UniProt P37173) | Kd: > 30 µM (inactive)
